This collection of values is drawn from PubChem BioAssay (Tox21).

measurementProtocol: qHTS assay to identify small molecule agonists of the sonic hedgehog signaling (Shh) pathway - cell viability counter screen (AID 1259366); further: on the % scale 0 is the no-effect control and ±100 the full control effect; nearly all actives have a fitted effect of over 50% in size
condition: NIH/3T3 Gli1-Luc viability, CellTiter-Fluor, 24 h; series mostly up to 92.4 µM
Inconclusive results are not listed. Activity calls are given as the source filed them. The call rests on the fitted dose curve; in most records, active means well fitted cell-killing curve with a large enough effect in the repeat runs; inconclusive means weak or mixed curves, or effect the other way; inactive means flat fitted curve, though single readings scatter.
// classify into active, inactive

Worked set:
compound=CCC1(CC)C(=O)N=C(O)NC1=O class=inactive
compound=ClC1=C(Cl)[C@]2(Cl)[C@H]3[C@H]([C@@H]4C=C[C@H]3C4)[C@@]1(Cl)C2(Cl)Cl class=inactive
compound=c1csc(-c2ccc(-c3cccs3)s2)c1 class=inactive

Asked: Any idea what this test logged for CCCN ?
Given back: inactive

Asked: Query: recorded result category for CCO/N=C(\CC)C1=C(O)CC(c2c(C)cc(C)cc2C)CC1=O (stereo not given) in this test
Given back: inactive

* * *

experimentalSystem: Peroxisome proliferator-activated receptor gamma (Homo sapiens) (UniProt P37231)
Sequence (P37231 whole entry, looked up): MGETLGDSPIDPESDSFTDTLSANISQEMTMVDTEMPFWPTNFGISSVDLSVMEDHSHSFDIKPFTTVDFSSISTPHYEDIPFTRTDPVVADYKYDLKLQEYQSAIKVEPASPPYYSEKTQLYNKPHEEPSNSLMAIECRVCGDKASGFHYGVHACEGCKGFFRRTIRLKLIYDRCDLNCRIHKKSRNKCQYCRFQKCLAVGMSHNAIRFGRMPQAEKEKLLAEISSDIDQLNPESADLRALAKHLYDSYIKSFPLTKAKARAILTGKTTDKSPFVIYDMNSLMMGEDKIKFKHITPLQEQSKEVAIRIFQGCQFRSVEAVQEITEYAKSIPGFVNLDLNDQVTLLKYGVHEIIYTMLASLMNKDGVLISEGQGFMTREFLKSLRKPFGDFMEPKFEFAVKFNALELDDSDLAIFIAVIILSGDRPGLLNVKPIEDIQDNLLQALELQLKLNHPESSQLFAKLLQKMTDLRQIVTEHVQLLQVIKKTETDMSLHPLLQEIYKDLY
measurementProtocol: qHTS assay to identify small molecule antagonists of the peroxisome proliferator-activated receptor gamma (PPARg) signaling pathway (AID 743191); further: on the % scale 0 is the no-effect control and ±100 the full control effect; nearly all actives have a fitted effect of over 30% in size
condition: HEK293H PPARg-UAS-bla, beta-lactamase ratio, antagonist, 17 h; series mostly up to 62.6 µM
Records with an inconclusive call do not appear. Active and inactive are the calls of the source. Calls come from the whole dose curve.
API: response.call in true (1) for active, false (0) for inactive

Sample answers from the record:
compound=O=C(NC(=O)c1ccccc1Cl)Nc1ccc(OC(F)(F)F)cc1 class="false (0)"
compound=CC[C@]1(O)CC[C@H]2[C@@H]3CCC4=CCCC[C@@H]4[C@H]3CC[C@@]21C class="false (0)"
compound="CCC1COC(Cn2cncn2)(c2ccc(Cl)cc2Cl)O1 (stereo not drawn)" class="false (0)"
compound="CC(Cc1ccccc1)N(C)Cc1ccco1 (stereo not drawn)" class="false (0)"

# next compound below
Asked: Hi, do you know how CCC(C)Nc1c([N+](=O)[O-])cc(C(C)(C)C)cc1[N+](=O)[O-] (stereo not drawn) came out in this test?
Given back: false (0)

* * *

experimentalSystem: Thyrotropin receptor (Homo sapiens)
measurementProtocol: qHTS assay to identify small molecule agonists of the thyroid stimulating hormone receptor (TSHR) signaling pathway (AID 1224843); further: nearly all actives have a fitted effect of over 45% in size
condition: TSHR-HEK293 cells, cAMP HTRF, agonist mode, 30 min; series mostly up to 92.4 µM
Records with an inconclusive call do not appear. The source made the active and inactive calls. Calls follow the shape of the full dose curve.
Response enum: active, inactive

Consider the worked cases shown below.
molecule=CC(C)Br class=inactive
molecule=N#Cc1c2ccccc2cc2ccccc12 class=inactive
molecule=COP(=O)(OC)Oc1ccc([N+](=O)[O-])cc1 class=inactive
molecule=Cc1ccc2cc3c(ccc4ccccc43)c3c2c1CC3 class=inactive

Asked: In this assay, the call recorded for O=NN(CCO)CCO was what?
Given back: inactive

Asked: GET /call?item= C[C@]12Cc3cn[nH]c3C[C@@H]1CC[C@@H]1[C@@H]2CC[C@@]2(C)[C@H]1CC[C@]2(C)O returns the recorded outcome of this test.
Given back: inactive

Asked: Answer briefly: the call reported for Nc1ccc(Cl)cc1C(=O)c1ccccc1F in this assay.
Given back: inactive

Asked: Test call for this molecule, please: c1ccc2c(c1)cc1ccc3cccc4ccc2c1c34
Given back: inactive

Asked: For this molecule, state the assay outcome: CC(O)C(=O)[O][Hg][c]1ccccc1 (stereo unspecified)
Given back: active

Asked: # fetch the recorded call for O=C1C[C@@H]2OCC=C3CN4CC[C@]56c7ccccc7N1[C@H]5[C@H]2[C@H]3C[C@H]46 here
Given back: inactive

Asked: How did this test come out for CC(Cc1ccc(O)cc1)NCC(O)c1cc(O)cc(O)c1 (stereo unspecified) ?
Given back: active

Asked: # fetch the recorded call for ClC1=C(Cl)[C@]2(Cl)[C@@H]3[C@H]4C[C@H]([C@@H]5O[C@H]45)[C@@H]3[C@@]1(Cl)C2(Cl)Cl here
Given back: active

Asked: Name the outcome recorded for CC#C[C@]1(O)CC[C@H]2[C@@H]3C[C@H](C)C4=CC(=O)CC[C@]4(C)[C@H]3CC[C@@]21C in the assay.
Given back: inactive

Asked: // outcome(item) with item = Fc1ccc(C(OCCN2CCN(CCCc3ccccc3)CC2)c2ccc(F)cc2)cc1
Given back: inactive

Asked: Tell me the recorded outcome of this test for CNC(=O)O/N=C(\C)C(C)S(C)(=O)=O (stereo unspecified) .
Given back: inactive

Asked: I'd appreciate the recorded outcome for COP(=S)(OC)Oc1ccc([N+](=O)[O-])c(C)c1 from this test.
Given back: inactive

* * *

measurementProtocol: qHTS assay to identify aromatase inhibitors - cell viability counter screen (AID 743084);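 further: cells stimulated with testosterone during compound exposure; nearly all actives have a fitted effect of over 55% in size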
condition: MCF-7 aro ERE viability, CellTiter-Fluor, 24 h; series mostly up to 70.3 µM
Results filed as inconclusive are left out. Active and inactive are the calls of the source. Calls come from the whole dose curve; as a rule, active = well fitted cell-killing curve with a large enough effect in the repeat runs; inconclusive = weak or mixed curves, or effect the other way; inactive = no such curve, though single readings can be large or run the other way.
API: response.call in t = active, f = inactive

Answered examples (10):
compound=Nc1ccc(N=Nc2ccccc2)cc1 class=t
compound="ClC1(Cl)C2(Cl)C3(Cl)C4(Cl)C(Cl)(Cl)C5(Cl)C3(Cl)C1(Cl)C5(Cl)C24Cl (stereo unspecified)" class=f
compound=[O-][Cl+3]([O-])([O-])O class=f
compound=CCC[CH2][Sn]([CH2]CCC)([O]C(C)=O)[O]C(C)=O class=t
compound=CCOC(=O)CCN(SN(C)C(=O)Oc1cccc2c1OC(C)(C)C2)C(C)C class=f
compound="CC(Cc1ccc2c(c1)OCO2)NO (stereo unspecified)" class=f
compound=[F][Sn]([c]1ccccc1)([c]1ccccc1)[c]1ccccc1 class=t
compound=CCc1cccc(C)c1N(C(=O)CCl)[C@@H](C)COC class=f
compound=CCCCN(CCCC)C(=S)S class=f
compound=Oc1cccc(Cl)c1Cl class=f

Asked: Hi, do you know how O.O.O.O.O.O.O=S(=O)([O-])[O-].[Ni+2] came out in this test?
Given back: f

Asked: Answer briefly: the call reported for CCCCON=O in this assay.
Given back: f

Asked: Tell me the recorded outcome of this test for C=CCBr .
Given back: f

* * *

measurementProtocol: A CellTox Green Cytotoxicity Assay to monitor cytotoxicity in HepG2 cells - 8 hour (AID 1224890); further: on the % scale 0 is the no-effect control and ±100 the full control effect; nearly all actives have a fitted effect of over 45% in size
condition: CellTox Green fluorescence; series mostly up to 76.8 µM
Inconclusive results are not listed. Calls of active or inactive are those of the source. The call rests on the fitted dose curve; in most records, active means well fitted activation curve with a large enough effect in the repeat runs; inconclusive means weak or mixed curves; inactive means flat fitted curve, though single readings scatter.
Outcome (select one): true (1) (active), false (0) (inactive)

Asked: Field: outcome | Entry: CNC(C)(C)Cc1ccccc1
Given back: false (0)

Asked: Kindly provide the recorded test outcome for the following compound: OCC(Br)CBr (stereo not drawn)
Given back: false (0)

Asked: Per the assay record, what outcome was assigned to CC(C)NCC(O)c1ccccc1Cl (stereo not drawn) ?
Given back: false (0)

Asked: Query: recorded result category for [O]=[Cr](=[O])([OH])[O][Cr](=[O])(=[O])[OH] in this test
Given back: false (0)

* * *

measurementProtocol: A CellTox Green Cytotoxicity Assay to monitor cytotoxicity in HepG2 cells - 16 hour (AID 1224876); further: on the % scale 0 is the no-effect control and ±100 the full control effect; nearly all actives have a fitted effect of over 45% in size
condition: CellTox Green fluorescence; series mostly up to 76.8 µM
Records with an inconclusive call do not appear. Activity calls are given as the source filed them. Calls follow the shape of the dose curve; as a rule, active = well fitted activation curve with a large enough effect in the repeat runs; inconclusive = weak or mixed curves; inactive = flat fitted curve, though single readings scatter.
observationType: Potency

Take a look at these entries with their results.
compound=O=NN(CCO)CCO resultvalue=inactive
compound=CNC(=O)CSP(=O)(OC)OC resultvalue=inactive
compound=CC(C)(C)c1ccc(OP(=O)(Oc2ccccc2)Oc2ccccc2)cc1 resultvalue=inactive
compound=C=CC(=C)C resultvalue=inactive

For record c1csc(-c2ccc(-c3cccs3)s2)c1 the listed Potency is inactive

* * *

measurementProtocol: qHTS assay to identify small molecule phospholipidosis (PLD) inducers (AID 1259344); further: on the % scale 0 is the no-effect control and ±100 the full control effect
condition: HepG2 phospholipidosis, LipidTOX Red imaging, 24 h; series mostly up to 38.3 µM
Method: National Center for Advancing Translational Sciences [NCATS] Drug-induced Phospholipidosis (PLD) caused by cationic amphiphilic drugs is characterized by the appearance of unicentric or multicentric-lamellar bodies when viewed under electron microscope. […] Drug induced phospholipid accumulation is stained with the LipidTox dyes in red color which then is determined using an automated high content screening system. […]
Results filed as inconclusive are left out. Calls of active or inactive are those of the source. The call rests on the fitted dose curve; in most records, active means well fitted activation curve with a large enough effect; inconclusive means small, poorly fitted or top-dose-only effect; inactive means flat fitted curve, though single readings scatter.
observationType: PLD induction

Check out these entries, answers already filled in.
compound="CC(Cc1ccc2c(c1)OCO2)NO (stereo unspecified)" observationtype="PLD induction" resultvalue=inactive
compound=CNC(C)(C)Cc1ccccc1 observationtype="PLD induction" resultvalue=inactive
compound=O=C(O)CCCCCCNC1c2ccccc2CCc2ccccc21 observationtype="PLD induction" resultvalue=inactive
compound=C[C@]12C/C(=C/O)C(=O)C[C@@H]1CC[C@@H]1[C@@H]2CC[C@@]2(C)[C@H]1CC[C@]2(C)O observationtype="PLD induction" resultvalue=inactive
compound="C[N+]1(C)[C@@H]2CC[C@H]1CC(OC(=O)C(CO)c1ccccc1)C2 (stereo partly specified)" observationtype="PLD induction" resultvalue=inactive

Now for the compound whose PLD induction we want.
CCCCC/C=C\C/C=C\C/C=C\C/C=C\CCCC(=O)NCC(=O)O yielded PLD induction of 0.136% [at 3.15 µM] (inactive)
